These data points were gathered from PubChem BioAssay.

test method notes: small-molecule microarray binders of probe aEGFR, primary screen, biochemical, biotinylated probe, 635/667 nm fluorescence (AID 1097);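 note: probe is a biotinylated anti-EGFR antibody binding compounds printed on slides; score combines fluorescence near 667 nm and signal to noise of each spot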
assay conditions: higher = more signal
readout type: composite z-score
Write the number on its own, no unit after it.

Quickly give me recorded composite z-score for `O=C1[C@H]2CCn3c(=O)n(-c4ccccc4)c(=O)n3[C@H]2[C@H](O)[C@@H]2O[C@H]12` -0.181

Quickly give me recorded composite z-score for `C#CCCCON=C1C[C@@H](O)[C@@H](O)[C@@H]2[C@@H]3C(=O)N(C4CCCCC4)C(=O)[C@@H]3CC[C@@H]12` -0.0409

Quickly give me recorded composite z-score for `C#CCCCON=C1[C@H]2CCn3c(=O)n(Cc4cc5c(cc4Cl)OCO5)c(=O)n3[C@H]2[C@H](O)[C@@H]2O[C@H]12` -0.191

----------
test method notes: small-molecule microarray binders of probe aXIP, primary screen, biochemical, NeuroSMM set, 635/667 nm fluorescence (AID 1119);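 note: probe is the protein aXip251-270 applied at 1 µg/mL to compound-printed slides; binding of probe to printed compounds measured as 667 nm fluorescence plus signal to noise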
assay conditions: higher = more signal, called active from +8 up or from −8 down
readout type: composite Z-score
Write the number on its own, no unit after it.

Answered cases to consult:
molecule="O=C(NCCC[N+]1=CC=NC1c1ccccc1)N1CCCc2nc(-c3ccc(Br)cc3)ccc21 (configuration not stated)" experimental_result=0.762
molecule=CC(=O)OC[C@H]1O[C@@H](ON=C(C)CCC(=O)OC[C@H]2O[C@H](C#Cc3ccccc3)C=C[C@@H]2Oc2ccc(C)cc2)[C@H](OC(C)=O)[C@@H](OC(C)=O)[C@@H]1OC(C)=O experimental_result=-0.0164
molecule=COc1ccc(O[C@H]2C=C[C@@H](C#Cc3ccccc3)O[C@@H]2CO)cc1 experimental_result=0.446
molecule="COC(=O)[C@H](C)NC(=O)CCC1CC(OC(=O)NCc2ccc3c(c2)OCO3)CC2(CCCC(COC(=O)NCc3ccccc3)O2)O1 (some centres not stated)" experimental_result=0.264
molecule="CCC1=NOC(CCC2CC(OC(=O)NCc3cccc4c3OCO4)CC3(CCCC(COC(=O)NCCc4ccc(Cl)cc4)O3)O2)C1 (configuration not stated)" experimental_result=-0.0197
molecule="CC(=O)OC[C@H]1O[C@H](CC=NOC(C)CN2CCCCc3nc(C)c(C)cc32)C=C[C@@H]1OC(C)=O (some centres not stated)" experimental_result=-1.11
molecule=CON=C(C)CCN1CCc2nc(-c3ccccc3)c(-c3ccccc3)cc2C1 experimental_result=0.837
molecule=CCOC(=O)CCN1C(=O)[C@H]2[C@H]3[C@H](O)[C@H](O)CC(=NOCC(C)C)[C@@H]3CC[C@H]2C1=O experimental_result=0.544
molecule=O=C1C2=CC[C@H]3C(=O)N(Cc4ccccc4)C(=O)[C@H]3[C@H]2[C@H](O)[C@@H]2O[C@H]12 experimental_result=0.0144
molecule=CC(C)CN1CCc2nc(-c3ccccc3)c3c(c2C1)CO[C@@H](C)C3 experimental_result=-0.548

Quickly give me recorded composite Z-score for C=CC[C@@H]1C=CC(ON=C(C)C)[C@@H](CO)O1 (some centres not stated) 0.112

Quickly give me recorded composite Z-score for `CCN1C(=O)[C@H]2[C@H]3[C@H](O)[C@H](O)CC(=NNC(=O)OCc4ccccc4)[C@H]3CC[C@H]2C1=O` -0.431

Quickly give me recorded composite Z-score for `CON=C1c2cc(OC)ccc2O[C@H](c2cccc(OC)c2)[C@H]1O` 0.133

----------
subject of test: Torsin-1A-interacting protein 1 (Homo sapiens)
test method notes: LAP1 binders from COS7 cell lysate, primary screen, small-molecule microarray, 635/667 nm fluorescence (AID 1116)
assay conditions: COS7-hLAP1 lysate binding, 635 nm fluorescence, higher = more signal
readout type: composite z-score
Write the number on its own, no unit after it.

test_smiles=CO[C@@H](C1CCCCC1)[C@@H](C)[C@H](OCc1cccc(Br)c1)[C@@H](C)CO experimental_result=0.0682
test_smiles=CCOC(=O)CCN1C(=O)[C@H]2[C@@H]3C(=CC[C@H]2C1=O)C(=O)[C@H]1O[C@H]1[C@H]3O experimental_result=0.447
test_smiles=CO[C@H]1COC(=O)CC=C[C@H](C)[C@H](OC)COC(=O)[C@@H](C)NC(=O)CC=C[C@@H]1C experimental_result=0.229

Next, consider the following compound.
Quickly give me recorded composite z-score for `C[C@@H](c1ccccc1)N1C(=O)[C@H]2[C@H]3[C@H](O)[C@H](O)CC(=NOC[C@@H](O)COCc4ccco4)[C@H]3CC[C@H]2C1=O` -0.175

----------
test method notes: anti-His antibody binders, primary screen, artefact control for SMM control protein annotation, biochemical, small-molecule microarray, 635 nm fluorescence (AID 1128);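 note: score merges feature fluorescence with signal-to-noise for each printed compound spot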
assay conditions: anti-His Alexa647 antibody binding, higher = more signal
Parameter composite z-score: see the listing below.
Write the number on its own, no unit after it.

compound=CC(C)(C)N1C(=O)[C@H]2[C@H]3[C@H](O)[C@H](O)CC(=NOC[C@@H](O)COCc4ccco4)[C@@H]3CC[C@H]2C1=O experimental_result=-0.329
compound=CC(CCC(=O)OC[C@H]1O[C@H](C#Cc2ccccc2)C=C[C@@H]1Oc1ccc(C)cc1)=NO[C@@H](C)c1cc(-c2c(C)cc(C)cc2C)no1 experimental_result=0.888
compound=CCOC(=O)CCN1C(=O)[C@H]2[C@H]3[C@H](O)[C@H](O)CC(=NO[C@@H]4O[C@H](CO)[C@@H](O)[C@H](O)[C@H]4O)[C@@H]3CC[C@H]2C1=O experimental_result=0.818
compound=CC(=O)OC[C@H]1O[C@@H](ON=C(C)CCN2CCCCc3nc(C)c(C)cc32)[C@H](OC(C)=O)[C@@H](OC(C)=O)[C@@H]1OC(C)=O experimental_result=0.914
compound=O=C1C=C[C@@H](O)[C@@H]2[C@@H]3C(=O)N(c4cccc(Oc5ccccc5)c4)C(=O)[C@@H]3CC[C@@H]12 experimental_result=0.959
compound="COC(=O)CC=C[C@@H](C)[C@@H](C=NOC(C)CN1CCCCc2nc(C)c(C)cc21)OC (stereo not given in full)" experimental_result=1.4

Quickly give me recorded composite z-score for CCN1C(=O)[C@H]2[C@H]3[C@H](O)[C@H](O)CC(=NOC(C)CN4CCCc5nc(C)c(C)cc54)[C@@H]3CC[C@H]2C1=O (stereo not given in full) -0.245

Quickly give me recorded composite z-score for CC(=O)OC[C@H]1O[C@H](CC=NOC(C)CN2CCCCc3nc(C)c(C)cc32)C=C[C@@H]1OC(C)=O (stereo not given in full) 0.544

Quickly give me recorded composite z-score for CC1(C)O[C@H]2OC([C@H](O)CON3C(=O)c4ccccc4C3=O)[C@H](O)[C@H]2O1 (stereo not given in full) 0.547

Quickly give me recorded composite z-score for `CC(C)[C@@H](OCc1ccccc1)[C@H](C)C=NO[C@@H](C)c1cn([C@H](CO)Cc2ccccc2)nn1` 0.08

Quickly give me recorded composite z-score for CCC1=NOC(CCC2CC(OC(=O)NCc3cccc4c3OCO4)CC3(CCCC(COC(=O)NCCc4ccc(Cl)cc4)O3)O2)C1 (stereo not given) 0.696

Quickly give me recorded composite z-score for `CC(=O)OC[C@H]1O[C@H](CC=NO[C@H](C)c2cn([C@@H]3COC[C@H]3O)nn2)C=C[C@@H]1OC(C)=O` 0.606

----------
System: Noggin (protein binding on small-molecule microarray)
test method notes: Noggin binders on small-molecule microarray, primary screen, biochemical, 635/667 nm fluorescence (AID 1095);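 note: score merges 667 nm feature fluorescence with signal to noise over triplicate slides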
assay conditions: 635 nm fluorescence, higher = more signal
readout type: composite z-score
Write the number on its own, no unit after it.

compound=CO[C@@H]1COC(=O)[C@@H]2CCCN2C(=O)[C@@H](C)COC(=O)CCC[C@H]1C experimental_result=0.456

Next, consider the following compound.
Quickly give me recorded composite z-score for `CCc1cc2c(nc1CC)CCN(CCC(C)=NOC[C@@H](C)[C@H](OCc1ccccc1)C(C)C)C2` -0.249

----------
test method notes: basal MM1S mitochondrial membrane potential changes, profiling panel, cell-based, JC-1 fluorescence, 24 h, 100 nL compound (AID 1170); note: test concentration not given here
assay conditions: higher = more signal
Parameter z-score: see the listing below.
Write the number on its own, no unit after it.

compound="O=C(NCCC[N+]1=CC=NC1c1ccccc1)N1CCCc2nc(-c3ccc(Br)cc3)ccc21 (stereo not drawn)" experimental_result=-0.404

Quickly give me recorded z-score for CCOC(=O)[C@H](Cc1ccccc1)NC(=O)CCC1CC(OC(=O)NCc2cccc3ccccc23)CC2(CCCC(COC(=O)NCc3ccc4c(c3)OCO4)O2)O1 (stereo partly drawn) -0.239

Quickly give me recorded z-score for `COC(=O)[C@H](CCSC)NC(=O)CC=C[C@@H](C)CO` -1.62

Quickly give me recorded z-score for COC(=O)[C@H](C)NC(=O)CCC1CC(OC(=O)NCc2cccc3ccccc23)CC2(CCCC(COC(=O)NCCC(C)C)O2)O1 (stereo partly drawn) -1.82

Quickly give me recorded z-score for `COCOc1ccc(Br)cc1C(=O)C=Cc1ccc2c(c1)OCO2` -2.71

Quickly give me recorded z-score for `CO[C@@H]1C=CCC(=O)N[C@@H](C)C(=O)OC[C@@H](NS(=O)(=O)c2ccc(C)cc2)[C@H](C)C=CCC(=O)OC[C@H]1C` 0.301

Quickly give me recorded z-score for `CC(C)=NOC[C@@H](O)[C@H]1O[C@@H]2OC(C)(C)O[C@@H]2[C@H]1O` 0.661

Quickly give me recorded z-score for `CCOC(=O)CCN1C(=O)[C@H]2[C@H]3[C@H](O)[C@H](O)CC(=O)[C@@H]3CC[C@H]2C1=O` 0.325
